Each recorded value in this set is attributed to patent US9487504B2.

Here, each record is paired with measured pIC50 data.
targetOrSystem: recombinant human GST-Syk (Homo sapiens, UniProt P43405)
Construct: purchased Carna Biosciences 08-176
assayOverview: Homogeneous Time-Resolved Fluorescence (HTRF) assay for the recombinant human Syk enzyme
Type: biochemical
testConditions: ATP 25 μM, 10-dose titration, read-out: rhSYK Activity
pIC50: −log10 of the molar value.

Exercise: Record request: pIC50 value, item CC(C)(O)CCc1cn(-c2cc(Nc3nccc(C(F)(F)F)n3)cc(N3CCOCC3)c2)cn1
Solution: ≥ 7.00

Exercise: Record request: pIC50 value, item COc1ccnc(Nc2cc(C)cc(-n3cnc([C@]4(O)CC[C@@H](O)CC4)c3)c2)n1
Solution: ≥ 7.00

Exercise: Record request: pIC50 value, item CCOC(=O)C(C)(C)C1CCC(O)(c2cn(-c3cc(C)cc(Nc4cc(C(F)(F)F)ccn4)n3)cn2)CC1 (stereo not drawn)
Solution: 6.00 to 7.00
